target: Kappa-type opioid receptor (Homo sapiens, UniProt P41145)
Sequence (P41145 whole entry): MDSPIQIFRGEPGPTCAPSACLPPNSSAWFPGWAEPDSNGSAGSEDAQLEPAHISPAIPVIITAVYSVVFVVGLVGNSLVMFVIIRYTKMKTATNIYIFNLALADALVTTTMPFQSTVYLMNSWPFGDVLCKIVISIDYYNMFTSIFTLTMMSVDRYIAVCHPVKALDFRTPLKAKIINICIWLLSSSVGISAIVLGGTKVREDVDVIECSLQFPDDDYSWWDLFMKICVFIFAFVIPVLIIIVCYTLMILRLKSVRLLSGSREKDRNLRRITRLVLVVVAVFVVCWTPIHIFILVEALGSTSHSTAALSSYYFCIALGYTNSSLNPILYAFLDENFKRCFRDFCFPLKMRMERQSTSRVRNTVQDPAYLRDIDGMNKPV
measurement.kind: Ki (nM)
Answers are plain numbers, in nM.

CN1CC[C@]23c4c5ccc(O)c4O[C@H]2c2[nH]c4c(c2C[C@@]3(O)[C@H]1C5)C[C@@]1(O)[C@H]2Cc3ccc(O)c5c3[C@@]1(CCN2C)[C@H]4O5 7.7

[Q] Which Ki is reported with Kappa-type opioid receptor (Homo sapiens, UniProt P41145) for this entry: Oc1ccc2c3c1O[C@H]1c4c(c5c(n4Cc4ccccc4)[C@@H]4Oc6c(O)ccc7c6[C@@]46CCN(CC4CC4)[C@H](C7)[C@]6(O)C5)C[C@@]4(O)[C@@H](C2)N(CC2CC2)CC[C@]314 ?
[A] 0.7
